Recorded values, source the supplement of paper PMC3545927.

- system: furin, P09958;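 further: purified furin at 1:10 enzyme:substrate in 50 mM HEPES pH 7.5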
- Sequence (P09958 whole entry): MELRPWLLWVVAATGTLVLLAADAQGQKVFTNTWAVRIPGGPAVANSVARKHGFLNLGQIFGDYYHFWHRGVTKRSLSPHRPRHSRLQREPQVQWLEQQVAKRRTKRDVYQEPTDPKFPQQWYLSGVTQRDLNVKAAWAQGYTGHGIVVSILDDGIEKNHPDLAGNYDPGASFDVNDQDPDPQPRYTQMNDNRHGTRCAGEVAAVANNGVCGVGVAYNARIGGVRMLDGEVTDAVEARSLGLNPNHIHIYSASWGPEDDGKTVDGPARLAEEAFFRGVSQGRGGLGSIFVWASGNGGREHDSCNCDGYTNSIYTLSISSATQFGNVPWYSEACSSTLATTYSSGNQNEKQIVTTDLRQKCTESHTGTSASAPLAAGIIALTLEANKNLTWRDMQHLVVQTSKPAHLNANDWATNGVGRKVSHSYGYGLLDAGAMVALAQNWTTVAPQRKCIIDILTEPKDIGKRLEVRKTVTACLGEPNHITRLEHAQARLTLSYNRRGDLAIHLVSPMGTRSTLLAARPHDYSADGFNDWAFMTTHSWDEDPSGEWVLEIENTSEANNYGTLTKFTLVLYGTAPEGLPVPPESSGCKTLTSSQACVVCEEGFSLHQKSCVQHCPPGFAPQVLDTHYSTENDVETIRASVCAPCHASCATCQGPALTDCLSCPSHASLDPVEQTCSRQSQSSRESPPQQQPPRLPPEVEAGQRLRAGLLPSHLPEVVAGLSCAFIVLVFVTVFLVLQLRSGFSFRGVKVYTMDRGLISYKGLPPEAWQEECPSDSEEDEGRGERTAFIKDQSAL
- procedure.summary: furin cleavage Z-score vs untreated control; higher = more cleavage, active = 3.5 or more, inactive = 1 or less, 8 variable residues between constant flanks
- condition.label: 15 min
The other results are listed elsewhere or left out. The hit rate among all sequences tested is not known here.
Label scheme for furin cleavage Z-score: lower than 0.008 is Not fulfilled, 0.008 and above is Fulfilled.

Reported furin cleavage Z-score reaches at least 0.008 for CARLVRPRRSAGNASASA [FS-952] ?
Fulfilled

Reported furin cleavage Z-score reaches at least 0.008 for CASDPCSAHLAGNASASA [HC2491] ?
Not fulfilled

Reported furin cleavage Z-score reaches at least 0.008 for CAGVARFYRSAGNASASA [FS-661] ?
Fulfilled

Reported furin cleavage Z-score reaches at least 0.008 for CAAFASRGNHAGNASASA [HC1121] ?
Not fulfilled

Reported furin cleavage Z-score reaches at least 0.008 for CAGTWRPRRSAGNASASA [FS-660] ?
Fulfilled

Reported furin cleavage Z-score reaches at least 0.008 for CAHHQRPKRYAGNASASA [FS-792] ?
Fulfilled

Reported furin cleavage Z-score reaches at least 0.008 for CARPSRLKKFAGNASASA [FS-290] ?
Not fulfilled

Reported furin cleavage Z-score reaches at least 0.008 for CAGKSRLKKSAGNASASA [FS-429] ?
Fulfilled

Reported furin cleavage Z-score reaches at least 0.008 for CARARRHSDGAGNASASA [FS-2480] ?
Fulfilled

Reported furin cleavage Z-score reaches at least 0.008 for CAGRARCYRSAGNASASA [FS-786] ?
Fulfilled

Reported furin cleavage Z-score reaches at least 0.008 for CAGPARPWKSAGNASASA [FS-127] ?
Not fulfilled

Reported furin cleavage Z-score reaches at least 0.008 for CAGVPCHRPSAGNASASA [HC2316] ?
Not fulfilled

Reported furin cleavage Z-score reaches at least 0.008 for CAKLNRKYRSAGNASASA [FS-1132] ?
Fulfilled

Reported furin cleavage Z-score reaches at least 0.008 for CARTKRLAIFAGNASASA [FS-3107] ?
Fulfilled

Reported furin cleavage Z-score reaches at least 0.008 for CAGCTTPCSGAGNASASA [HC1956] ?
Not fulfilled
